The following molecules are shown together with reported EC50 values.
- System: HCV 1b_Huh-Luc/Neo-ET cell line persistently expressing a bicistronic genotype 1b replicon in Huh 7 cells
- experiment description: HCV replicon assay (luciferase readout, 72 h)
- Type: cell-based, HCV genotype 1b
- condition summary: Hepatitis C virus, Huh-7, 72 h, read-out: Inhibition of HCV genotype 1b

Entry [2H]C([2H])([2H])C([2H])(C([2H])([2H])[2H])[C@]([2H])(NC(=O)OC)C(=O)N1CCC[C@H]1c1nc2ccc(C#Cc3ccc4c(c3)CCc3nc([C@@H]5CCCN5C(=O)[C@@H](NC(=O)OC)C(C)C)[nH]c3-4)cc2[nH]1 has what EC50?
< 1 nM
